- test_target: Probable G-protein coupled receptor 142 (Homo sapiens, UniProt Q7Z601)
- Sequence (Q7Z601 whole entry): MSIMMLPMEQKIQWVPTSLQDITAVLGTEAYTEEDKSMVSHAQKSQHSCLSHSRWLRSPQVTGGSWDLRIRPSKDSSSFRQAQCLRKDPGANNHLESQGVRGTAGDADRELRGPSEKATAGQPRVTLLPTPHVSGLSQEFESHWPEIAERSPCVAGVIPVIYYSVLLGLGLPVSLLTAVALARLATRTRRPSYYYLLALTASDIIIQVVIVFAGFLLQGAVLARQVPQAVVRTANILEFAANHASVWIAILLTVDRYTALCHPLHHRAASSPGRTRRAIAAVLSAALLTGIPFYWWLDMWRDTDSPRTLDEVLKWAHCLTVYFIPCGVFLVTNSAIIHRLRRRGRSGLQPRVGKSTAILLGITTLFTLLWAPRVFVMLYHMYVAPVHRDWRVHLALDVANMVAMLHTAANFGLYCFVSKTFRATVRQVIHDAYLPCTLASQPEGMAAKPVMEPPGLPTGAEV
- method_description: Agonist activity at human GPR142 transfected in HEK293 cells after 1 hr by inositol phosphate accumulation assay
- Format: functional, cell-based
- condition_info: read-out: EC50
Cut-off 20 nM on EC50: below means 1 (yes), at or above means 0 (no).

>>> df
                                   compound  group_label
0  CCOCc1c(C(=O)NCc2ccncc2)cnn1-c1ncc(C)c(-c2cccs2)n1       0 (no)
1  CCCc1c(C(=O)NCc2cc(C)no2)cnn1-c1ncc(C)c(-c2cccs2)n1       0 (no)
2  CCCCc1c(C(=O)NCc2c[nH]c3ccccc23)cnn1-c1ncc(C)c(-c2cccs2)n1       0 (no)
3  CCOCc1c(C(=O)NCc2cncn2C)cnn1-c1ncc(C)c(NC2CCC2)n1       0 (no)
4  CCCCc1c(C(=O)NCc2cnc(C)n2C)cnn1-c1ncc(C)c(-c2cccs2)n1       0 (no)

stdin: Strictly below 20 nM in EC50? CCCc1c(C(=O)NC(C)(C)c2ccncc2)cnn1-c1ncc(C)c(-c2cccs2)n1
stdout: 1 (yes)

stdin: Answer whether the compound CCOCc1c(C(=O)NCc2cncn2C)cnn1-c1ncc(C)c(N2CCCC2)n1 has EC50 strictly less than 20 nM
stdout: 1 (yes)

stdin: Is EC50 strictly under 20 nM for the entry CCCCc1c(C(=O)NC2CCCc3ncn(C)c32)cnn1-c1ncc(C)c(-c2cccs2)n1 (stereo not given) ?
stdout: 0 (no)

stdin: Please determine if CCCCc1c(C(=O)NCc2c(C)ncn2C)cnn1-c1ncc(C)c(-c2cccs2)n1 is below 20 nM in terms of EC50.
stdout: 1 (yes)

stdin: Identify whether the compound CCOCc1c(C(=O)NCc2cncn2C)cnn1-c1ncc(C)c(OCC)n1 records EC50 below 20 nM.
stdout: 0 (no)

stdin: Please indicate whether the reported EC50 of CCOCc1c(C(=O)NCc2cncn2C)cnn1-c1ncc(C)c(N2CCC2)n1 is strictly below 20 nM.
stdout: 0 (no)

stdin: Criterion: EC50 strictly below 20 nM. Is it met by CCCCCc1c(C(=O)NCc2ccncc2)cnn1-c1ncc(C)c(-c2cccs2)n1 ?
stdout: 0 (no)

stdin: Threshold test, EC50 < 20 nM: CCCCc1c(C(=O)NCc2cncn2C)cnn1-c1ncc(C)c(-c2cccs2)n1
stdout: 1 (yes)

stdin: In the record for CCCCc1c(C(=O)NCc2sc(C)nc2C)cnn1-c1ncc(C)c(-c2cccs2)n1 , is EC50 less than 20 nM?
stdout: 0 (no)

stdin: Input CCCc1c(C(=O)NCc2cn(C)cn2)cnn1-c1ncc(C)c(-c2cccs2)n1 ; condition: EC50 strictly below 20 nM. Does it hold?
stdout: 0 (no)
